Items are presented alongside their recorded melting point.

Example results:
CCOc1cc(F)cc2c1c(CCN(C)C)cn2C.Cl [Compound 32]: 202.2 to 203.3 °C
CCOc1ccc(F)c2c1c(CCN(C)C)cn2CC [Compound 24]: 59 to 60 °C
CCCOc1c(F)ccc2c1c(CCN(C)C)cn2CCC.Cl: 142 to 145 °C
CCCn1cc(CCN(C)C)c2c(OC)c(F)ccc21.Cl [Compound 42]: 111 to 113 °C
COc1cc(F)cc2c1c(CCN(C)C)cn2C.Cl [Compound 31]: 260.6 to 261.3 °C

Q: What does the record list as melting point for CCCn1cc(CCN(C)C)c2c(OCC)c(F)ccc21.Cl [Compound 61] ?
Result: 141 to 143 °C

Q: Any idea what its melting point is? The compound is CCCn1cc(CCN(C)C)c2cc(F)c(O)cc21 [Compound 84]
Result: 157 to 159 °C

Q: Would you kindly share the measured melting point for COc1ccc(Br)c2c1c(CCN(C)C)cn2C.Cl [Compound 73] ?
Result: 235 to 236 °C

Q: Which melting point reading was recorded for the compound CCOc1cc(F)cc2c1c(CCN(C)C)cn2CC [Compound 35] ?
Result: 77.1 to 78.2 °C

Q: Name the reported melting point value associated with the compound CCCOc1cc(F)cc2c1c(CCN(C)C)cn2CCC.Cl [Compound 39]
Result: 170.3 to 171.4 °C

Source of measurements: patent US20090318527A1
